Where do these numbers come from? They come from the Deep4Chem optical property database.

Entries and their absorption maximum values follow.
assay: solvent given as SMILES; details: in CCCCO
# output: bare number, implied unit nm

Below: 5 molecules and their reported absorption maximum.
Cc1cnc(NC(=O)C2=C([O-])c3ccccc3S(=O)(=O)N2C)s1 :: 369
O=C(O)c1cc2c(ccc3ccccc32)oc1=O :: 372
CC1=C(C(C)(C)C)C(C)=[N+]2C1=C(C)c1c(C)c(C(C)(C)C)c(C)n1[B-]2(F)F :: 526.1
O=C1c2ccccc2C(=O)N1c1ccc(Cn2cncn2)cc1 :: 302
CN(C)c1ccc(/C=C/C=C2\CC/C(=C\c3ccc(N(C)C)cc3)C2=O)cc1 :: 499

In the following, a different molecule is considered.
Consider the molecule Cc1nc2c(c[n+]1C)CN1C(=O)N([C@H]3O[C@@H](CO)[C@H](O)[C@@H]3O)C=CC1=N2 and give its measured absorption maximum.
390
